# Test system: humane Spermien
# test: Sperm chemotaxis flat capillary assay (cell density in capillary)
# Type: cell-based, human
# conditionDescription: Homo sapiens, Sperm; 4 h, 37 °C; read-out: ED50 (Konzentration, die die halbmaximale Antwort hervorruft), Zelldichte
measuredAttribute: pEC50
Quick note: pEC50 means taking -log10 of the concentration in moles per liter.

Report pEC50 for CC(C)(C)c1ccc(CCC=O)cc1 [Bourgeonal] please.
7.52

Hello, the source for this data is patent EP1551873B1, in case you need it.
